- assay_info: Drug level in po dosed CD1 mouse administered as 5% phosal solution after 1 hr
- Type: ADME, organism-based
- test_parameters: in vivo, read-out: Drug uptake
reported_metric: concentration at 1 h (µM)
# number only, unit µM dropped from output

// returns reported concentration at 1 h for input Clc1ccc(Nc2nnc(-c3cccc4cnccc34)c3ccccc23)cc1
22.7

* * *

- system_tested: Vascular endothelial growth factor receptor 2 (Homo sapiens, UniProt P35968)
- Sequence (P35968 whole entry): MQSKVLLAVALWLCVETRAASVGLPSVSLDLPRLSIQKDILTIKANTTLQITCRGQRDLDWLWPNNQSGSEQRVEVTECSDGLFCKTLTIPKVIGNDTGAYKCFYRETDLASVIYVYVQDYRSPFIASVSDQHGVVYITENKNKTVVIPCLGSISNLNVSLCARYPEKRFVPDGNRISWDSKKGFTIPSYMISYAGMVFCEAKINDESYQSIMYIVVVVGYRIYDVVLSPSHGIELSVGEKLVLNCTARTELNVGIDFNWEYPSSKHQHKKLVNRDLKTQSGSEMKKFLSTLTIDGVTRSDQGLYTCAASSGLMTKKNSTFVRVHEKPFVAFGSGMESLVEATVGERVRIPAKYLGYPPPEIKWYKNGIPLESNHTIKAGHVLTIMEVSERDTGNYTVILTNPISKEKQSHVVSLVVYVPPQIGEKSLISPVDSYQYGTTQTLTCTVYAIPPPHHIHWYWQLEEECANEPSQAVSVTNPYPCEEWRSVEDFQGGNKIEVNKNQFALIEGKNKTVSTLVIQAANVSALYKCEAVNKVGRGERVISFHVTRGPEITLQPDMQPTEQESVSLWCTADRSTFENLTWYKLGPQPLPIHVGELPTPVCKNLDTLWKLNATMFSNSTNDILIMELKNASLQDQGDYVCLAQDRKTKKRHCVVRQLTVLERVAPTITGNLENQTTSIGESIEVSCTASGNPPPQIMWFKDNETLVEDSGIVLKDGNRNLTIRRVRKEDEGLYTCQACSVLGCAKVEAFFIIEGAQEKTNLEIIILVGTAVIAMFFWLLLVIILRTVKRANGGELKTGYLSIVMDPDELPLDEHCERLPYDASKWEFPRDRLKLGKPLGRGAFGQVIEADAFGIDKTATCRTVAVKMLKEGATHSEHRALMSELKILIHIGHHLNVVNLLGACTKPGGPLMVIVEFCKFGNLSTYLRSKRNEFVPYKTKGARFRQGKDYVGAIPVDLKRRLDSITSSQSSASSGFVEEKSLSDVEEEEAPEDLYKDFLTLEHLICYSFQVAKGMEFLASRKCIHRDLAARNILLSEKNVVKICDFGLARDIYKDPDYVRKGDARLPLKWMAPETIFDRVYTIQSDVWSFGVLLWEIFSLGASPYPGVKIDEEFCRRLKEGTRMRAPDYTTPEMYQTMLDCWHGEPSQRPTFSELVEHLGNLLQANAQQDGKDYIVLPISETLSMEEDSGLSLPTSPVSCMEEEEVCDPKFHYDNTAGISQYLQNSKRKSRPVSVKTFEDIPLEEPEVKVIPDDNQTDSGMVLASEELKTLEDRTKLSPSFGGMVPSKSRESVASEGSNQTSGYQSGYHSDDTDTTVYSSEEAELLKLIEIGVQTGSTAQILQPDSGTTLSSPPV
reported_metric: IC50

Please state recorded IC50 (tested on Vascular endothelial growth factor receptor 2 (Homo sapiens, UniProt P35968)) of NC(=O)c1ccc(-c2nnc(Nc3ccc(Oc4ccccc4)cc3)c3ccccc23)cc1
> 10 µM
